- Experimental target: T1, Anti-PSMA Fab (biotinylated (site not stated))
- T1 construct: The biotinylated PSMA Fab was captured on neutravidin coated plates for the phage ELISA; also called 006 PSMA Fab
- Test name: phage ELISA; biotinylated anti-PSMA Fab on neutravidin plate, anti-M13-HRP detection, no PSMA antigen
Some binders, each annotated with its measured Phage binding ELISA signal, Anti-PSMA Fab.
Readout kind: Phage binding ELISA signal, Anti-PSMA Fab

[
  {
    "Binder": "TELRCVPSWMCTGF (It was tested as crude clonal phage supernatant; also called Peptide-180 library clone) [Phage-2977]",
    "Val": 2.24
  },
  {
    "Binder": "FGYACIPNWMCTVF (It was tested as crude clonal phage supernatant; also called Peptide-180 library clone) [Phage-2978]",
    "Val": 2.24
  },
  {
    "Binder": "FTAYCKPAWMCQGL (It was tested as crude clonal phage supernatant; also called Peptide-180 library clone) [Phage-2988]",
    "Val": 2.22
  },
  {
    "Binder": "PMHACIPMWMCAGF (It was tested as crude clonal phage supernatant; also called Peptide-180 library clone) [Phage-2982]",
    "Val": 2.23
  },
  {
    "Binder": "VEHWCRPEWMCAGF (It was tested as crude clonal phage supernatant; also called Peptide-180 library clone) [Phage-2980]",
    "Val": 2.24
  },
  {
    "Binder": "LLVRCQPEWMCVGF (It was tested as crude clonal phage supernatant; also called Peptide-180 library clone) [Phage-2987]",
    "Val": 2.23
  },
  {
    "Binder": "FEMLCKPAWMCSGF (It was tested as crude clonal phage supernatant; also called Peptide-180 library clone) [Phage-2976]",
    "Val": 2.24
  },
  {
    "Binder": "PERMCRPLWMCEGF (It was tested as crude clonal phage supernatant; also called Peptide-180 library clone) [Phage-2983]",
    "Val": 2.23
  },
  {
    "Binder": "SEIACRPAWMCQWL (It was tested as crude clonal phage supernatant; also called Peptide-180 library clone) [Phage-2979]",
    "Val": 2.24
  },
  {
    "Binder": "DDRMCIPSWMCSGL (It was tested as crude clonal phage supernatant; also called Peptide-180 library clone) [Phage-2981]",
    "Val": 2.24
  },
  {
    "Binder": "TVVMCKPSWMCEGF (It was tested as crude clonal phage supernatant; also called Peptide-180 library clone) [Phage-2989]",
    "Val": 2.22
  },
  {
    "Binder": "EEVYCVPKWMCLGF (It was tested as crude clonal phage supernatant; also called Peptide-180 library clone) [Phage-2985]",
    "Val": 2.23
  },
  {
    "Binder": "SQPMCIPVWMCRGF (It was tested as crude clonal phage supernatant; also called Peptide-180 library clone) [Phage-2986]",
    "Val": 2.23
  },
  {
    "Binder": "AGIRCVPEWMCLGF (It was tested as crude clonal phage supernatant; also called Peptide-180 library clone) [Phage-2984]",
    "Val": 2.23
  }
]
